# system.name: T1, NPY2R
# T1 sequence (P49146 1-381, species assumed, looked up): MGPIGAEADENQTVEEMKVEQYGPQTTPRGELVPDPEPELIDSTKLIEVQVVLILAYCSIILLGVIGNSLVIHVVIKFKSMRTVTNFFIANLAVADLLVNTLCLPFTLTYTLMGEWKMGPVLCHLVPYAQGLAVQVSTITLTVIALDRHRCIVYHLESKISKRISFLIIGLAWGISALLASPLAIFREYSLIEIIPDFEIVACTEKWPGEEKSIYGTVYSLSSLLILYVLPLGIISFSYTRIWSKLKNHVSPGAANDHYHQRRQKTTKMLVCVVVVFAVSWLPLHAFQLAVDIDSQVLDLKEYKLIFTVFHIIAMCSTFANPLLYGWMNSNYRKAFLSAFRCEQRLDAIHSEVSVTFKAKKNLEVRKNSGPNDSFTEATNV
# test: cell-based or functional assay
Starred links: 1 amine or outer side, 2 acyl side, 3 side chain; linkers in the order of their positions; H or OH if unused. Positions of bridges follow the written chain, without caps; N, C: chain ends. Non-standard residues stand in square brackets, D forms with d. Groups on a side chain read outwards from the residue. No end group written: not given here. *: point of attachment. C20 diacid = O=C(O)CCCCCCCCCCCCCCCCCCC(=O)*; γGlu = O=C(O)[C@H](CCC(=O)[*:2])N[*:1]; hSer = N[C@@H](CCO)C(=O)O
Please go through the items and note down their NPY2R pEC50.

I would be grateful if you could share the reported NPY2R pEC50 for PKPEAPGK([γGlu-γGlu-C20 diacid])DASPEEW[hSer]RYYKDLRHYLNWLTRQRF-NH2 [Compound A30] . 10.3 -Log(EC50, M)

NPY2R pEC50 for PKPEAPGK([γGlu-γGlu-C20 diacid])DASPEEWKRYYEDLRHYLNWLTRQRF-NH2 (lactam 16-20) [Compound A43] ? 10.5 -Log(EC50, M)

Item PKPEAPGK([γGlu-γGlu-C20 diacid])DASPKEWDRYYKDLRHYLNWLTRQRF-NH2 [Compound A76] has what recorded NPY2R pEC50? 10.4 -Log(EC50, M)
